test.readout: melting point

Q) Name the recorded melting point of the molecule listed here: `CN(C)C(=O)CCNC(=O)c1ccc(-c2ccc3nnn(Cc4ccc5ncccc5c4)c3n2)cc1F`
A) 163 to 165 °C

Q) Name the recorded melting point of the molecule listed here: `CCCCc1nn(Cc2ccccc2C(=O)O)c(=O)n1Cc1ccc(-c2ccccc2-c2nnn[nH]2)cc1`
A) > 106 °C

Q) Name the recorded melting point of the molecule listed here: `COc1cccc(CC(=O)O)c1OCCCc1cc(OC(C)C)nn1Cc1ccc(C(F)(F)F)cc1`
A) 116 to 117 °C

Q) Name the recorded melting point of the molecule listed here: O=C(NC1CN2CCC1CC2)c1cccc2nc(-c3ccc(Cl)cc3)oc12 (centres undefined)
A) 181 to 183 °C

====

test.readout: melting point

Q) Name the recorded melting point of the molecule listed here: `N#CCn1cc(-c2ccccc2)c(=O)c(-c2ccccc2)c1`
A) 221 to 224 °C

Q) Name the recorded melting point of the molecule listed here: Cc1nc2c3c(c(C(N)=O)cc2n1C)CCC(c1ccccc1)N3 (stereo not given)
A) 311 to 319 °C

Q) Name the recorded melting point of the molecule listed here: CS(=O)(=O)c1ccc(C(Cc2ccccc2)C(=O)Nc2nc3ccccc3o2)cc1 (stereo not given)
A) 118 to 119 °C

Q) Name the recorded melting point of the molecule listed here: O=C1NC(O)c2cccn2-c2ccsc21 (stereo not given)
A) 172 °C

Q) Name the recorded melting point of the molecule listed here: `O=C(Nc1cccnc1Nc1ccc(CCNC[C@H](O)COc2ccc(O)cc2)cc1)c1ccccc1`
A) 97 to 99 °C

Q) Name the recorded melting point of the molecule listed here: CCOC12CC(C=C(C#N)COC)=CC=C1OCO2 (stereo not given)
A) 64 to 65 °C

Q) Name the recorded melting point of the molecule listed here: `Clc1cncc(Cl)c1CBr`
A) 40 to 44 °C

Q) Name the recorded melting point of the molecule listed here: `COC(=O)c1cc(Nc2ccccc2)c(Nc2ccc(OC)cc2)cc1C(=O)OC`
A) 122 to 124 °C

Q) Name the recorded melting point of the molecule listed here: `CCc1oc2ccccc2c1C(=O)c1ccc(OCC(=O)O)cc1`
A) 172 to 175 °C

Q) Name the recorded melting point of the molecule listed here: `CCCc1sc(NC(=O)C2CCCCC2)c(C#N)c1OC`
A) 146 to 147 °C

Q) Name the recorded melting point of the molecule listed here: CC(C)C(CS(=O)(=O)c1ccc(-c2cccc(CNC(=O)c3nc4ccccc4c(=O)[nH]3)c2)cc1)N(O)C=O (stereo not given)
A) 153 to 155 °C

Q) Name the recorded melting point of the molecule listed here: CCS(=O)(=O)N(C)C1c2cc(Cl)cc(Cl)c2OC(C)(C)C1OC(C)=O (stereo not given)
A) 136 to 137 °C

Q) Name the recorded melting point of the molecule listed here: COc1c(C)c(C)c(OC)c(CN2C(=O)[C@H]3CCC[C@H]3Nc3ccccc32)c1C (relative stereo)
A) 175 to 176 °C

Q) Name the recorded melting point of the molecule listed here: `Cc1cc(-n2ccnc2)c2cccc(OCc3c(Cl)ccc(S(=O)(=O)N4CCC[C@H]4C(=O)N4CCN(c5ccncc5)CC4)c3Cl)c2n1`
A) 136 °C

Q) Name the recorded melting point of the molecule listed here: `O=C(O)CCCCCCCn1cnc(-c2ccc(O)cc2)c1-c1ccc(O)cc1`
A) 203 to 204 °C

Q) Name the recorded melting point of the molecule listed here: `COc1ccc(C(=O)CCC(=O)c2ccc3ccccc3c2)cc1OC`
A) 133 °C

Q) Name the recorded melting point of the molecule listed here: CC12CCC(C1)C1(C)Oc3ccc(C(O)c4ccc(CO)cc4)cc3C21C (stereo not given)
A) 113 to 115 °C

Q) Name the recorded melting point of the molecule listed here: `C#CCOc1cc(-c2ncc(C(F)(F)F)cc2F)c(F)cc1Cl`
A) 68 to 70 °C

Q) Name the recorded melting point of the molecule listed here: `O=c1c2c([nH]n1-c1ccccc1)CCCC2`
A) 178 to 181 °C

Q) Name the recorded melting point of the molecule listed here: `O=C1c2ccccc2-c2c1c1ccccc1c(=O)n2CCCNS(=O)(=O)c1ccc(Br)cc1`
A) 241 to 243 °C

Q) Name the recorded melting point of the molecule listed here: `C[C@H]1CCC[C@@](O)(CNC(=O)c2c(Cl)ccc3nc(N4CC[C@H](O)C4)ccc23)C1`
A) 222 °C

Q) Name the recorded melting point of the molecule listed here: `Cc1ccc(S(=O)(=O)c2c(N3CCN(C(=O)c4cccs4)CC3)c3ccccc3n(C)c2=O)cc1`
A) 213 °C

Q) Name the recorded melting point of the molecule listed here: `O=c1ccc(Cc2cccnc2)c[nH]1`
A) 142 to 144 °C

Q) Name the recorded melting point of the molecule listed here: `CCOC(=O)CCC(=O)Oc1cccc(-c2cn3c(n2)sc2ccccc23)c1`
A) 70 to 74 °C

Q) Name the recorded melting point of the molecule listed here: `Cc1ccc(-c2nc(Cc3cc4cc(C=O)ccc4o3)c(C)o2)cc1`
A) 126 to 130 °C

Q) Name the recorded melting point of the molecule listed here: `CN(C)c1ccc(/C=C/c2c(F)cc(F)cc2F)cc1`
A) 127 to 128 °C

Q) Name the recorded melting point of the molecule listed here: `Cc1cccc(Cl)c1-n1nc(C(C)C)c(C#N)c1N`
A) 116 to 118 °C

Q) Name the recorded melting point of the molecule listed here: CCCN(CCC)C1CCc2c(ccc3c2C(=O)C(=O)N3)C1 (stereo not given)
A) 83 to 86 °C

Q) Name the recorded melting point of the molecule listed here: `NC(=O)c1cc2c(Oc3ccc(Cl)cc3)c[nH]c(=O)c2s1`
A) > 250 °C

Q) Name the recorded melting point of the molecule listed here: `O=S(=O)(Nc1cccc(OCc2csc(-c3ccccc3)n2)c1)C(F)(F)F`
A) 113 to 115 °C

Q) Name the recorded melting point of the molecule listed here: `CON=C1c2c(Cl)cc(Cl)c(-n3c(=O)cc(C(F)(F)F)n(C)c3=O)c2OC1(C)C`
A) 145 to 149 °C

Q) Name the recorded melting point of the molecule listed here: CC(Br)(CBr)CS(=O)(=O)Oc1c(Cl)cccc1Cl (stereo not given)
A) 74 to 76 °C

Q) Name the recorded melting point of the molecule listed here: `COn1cc(C(=O)NCc2ccc(Cl)cc2)c(=O)c2ccccc21`
A) 155 to 160 °C

Q) Name the recorded melting point of the molecule listed here: `CCN(C(=O)c1nn(-c2ccc(Cl)cc2Cl)c(-c2ccc(Cl)cc2)c1C)N1CC=CCC1`
A) 109 °C

Q) Name the recorded melting point of the molecule listed here: `c1cc(C2CCOCC2)ccn1`
A) 60 to 62 °C

Q) Name the recorded melting point of the molecule listed here: `CNC=Nc1ccc(-c2c[nH]cn2)cc1`
A) 189 to 190 °C

Q) Name the recorded melting point of the molecule listed here: `COc1cc2oc(=O)c3c(c2cc1OC)CCN(Cc1ccc(Cl)cc1)C3`
A) 173 to 175 °C

Q) Name the recorded melting point of the molecule listed here: `Clc1nnccc1-c1c(-c2ccccc2)nn2ccccc12`
A) 208 to 210 °C

Q) Name the recorded melting point of the molecule listed here: O=C(c1cccnc1)c1cccc(NC(=O)c2ccn3c2CSC3c2cccnc2)c1 (stereo not given)
A) 160 °C

Q) Name the recorded melting point of the molecule listed here: CCN(CC)C(=O)NC1CC2c3cccc4[nH]c(C(=O)OCc5ccccc5)c(c34)CC2N(C)C1 (stereo not given)
A) 226 to 229 °C

====

So I've got a bunch of molecules here, and I need their melting point values.

Q) Name the recorded melting point of the molecule listed here: CC(=O)C1C(=O)N(C(=O)NC(=O)c2ccccc2)c2ccccc21 (configuration not stated)
A) 198 °C

Q) Name the recorded melting point of the molecule listed here: `COc1ccc(-c2nnc3c4ccccc4c(CC#N)nn23)cc1`
A) 252 to 254 °C

Q) Name the recorded melting point of the molecule listed here: `O=C(O)c1cc(F)ccc1S`
A) 185 °C

Q) Name the recorded melting point of the molecule listed here: `CCCCCCCCCCOc1ccc(C(=O)c2cccc(C(=O)O)c2)cc1Cc1nnn[nH]1`
A) 147 to 150 °C

Q) Name the recorded melting point of the molecule listed here: `CC(=NN(C)c1ccc(C(F)(F)F)cc1)C(=O)NCc1ccc(Cl)cc1`
A) 112 to 113 °C

Q) Name the recorded melting point of the molecule listed here: `CCOC(=O)c1ncc2[nH]c3ccc(Oc4ncccn4)cc3c2c1COC`
A) 128 to 129 °C

Q) Name the recorded melting point of the molecule listed here: COc1cccc2c1CCC(C#N)C2=O (configuration not stated)
A) 120 to 122 °C

Q) Name the recorded melting point of the molecule listed here: `CCCCOc1cc(F)ccc1[N+](=O)[O-]`
A) 75 to 76 °C

Q) Name the recorded melting point of the molecule listed here: `CN(C)S(=O)(=O)c1c(S(N)(=O)=O)ccn1C`
A) 146 to 148 °C

Q) Name the recorded melting point of the molecule listed here: CCN(CC)c1ccc(C2(N(c3ccccc3)c3ccccc3)OC(=O)c3nccnc32)cc1 (configuration not stated)
A) 140 to 143 °C

Q) Name the recorded melting point of the molecule listed here: `COCc1ccc2ccc(C=O)nc2c1Cl`
A) 118 to 121 °C

Q) Name the recorded melting point of the molecule listed here: `CCCCSc1cc([N+](=O)[O-])cc2c1C(=O)OC2=O`
A) 95 to 97 °C

Q) Name the recorded melting point of the molecule listed here: `CC1(C)OC[C@@H](COn2cnc3c(Cl)nc(N)nc32)O1`
A) 118 to 120 °C

Q) Name the recorded melting point of the molecule listed here: Cc1ncnc(C)c1C(=O)N1CC2CN(CCC(NC(=O)C3CCCC3)c3ccccc3)CC2C1 (configuration not stated)
A) 48 to 49 °C

Q) Name the recorded melting point of the molecule listed here: `O=C(OCc1ccccc1)N1CCN(c2ccc(S(=O)(=O)N3CCCC3=O)cc2)CC1`
A) 153 to 155 °C

Q) Name the recorded melting point of the molecule listed here: `Cc1c[nH]c2c(/C=C/C#N)cccc12`
A) 225 to 227 °C

Q) Name the recorded melting point of the molecule listed here: CC1=CC(=Nc2nccs2)C(C)C(C)=C1O (configuration not stated)
A) 95 to 96 °C

Q) Name the recorded melting point of the molecule listed here: `COCOc1ccc(O)cc1OC`
A) 70 to 72 °C

Q) Name the recorded melting point of the molecule listed here: OC(CN1CC=C(c2ccc(Cl)cc2)CC1)c1ccc(Cc2ccc(Cl)cc2)cc1 (configuration not stated)
A) 149 to 152 °C

Q) Name the recorded melting point of the molecule listed here: `CCCC1(CCC)C(=O)N(C(C)(C)C)CC(C)(C)N1OC(C)(C)C#N`
A) 85 to 87 °C

Q) Name the recorded melting point of the molecule listed here: `Cc1c(CC(=O)O)oc2ccc(F)cc12`
A) 129 to 130 °C

Q) Name the recorded melting point of the molecule listed here: COc1ccc(C(N2CCN(c3ncccn3)CC2)N2CCCC2=O)cc1 (configuration not stated)
A) 166 to 170 °C
